The measured values listed here are drawn from patent US20230117034A1.

Reported IC50 by item:
TESTED ON: CDK9/CycT1 (Homo sapiens)
Construct: Recombinant full-length His-tagged human CDK9 and CycT1; purchased Life Technologies PV4131; host or cells: insect cells
Sequence (P50750 whole entry): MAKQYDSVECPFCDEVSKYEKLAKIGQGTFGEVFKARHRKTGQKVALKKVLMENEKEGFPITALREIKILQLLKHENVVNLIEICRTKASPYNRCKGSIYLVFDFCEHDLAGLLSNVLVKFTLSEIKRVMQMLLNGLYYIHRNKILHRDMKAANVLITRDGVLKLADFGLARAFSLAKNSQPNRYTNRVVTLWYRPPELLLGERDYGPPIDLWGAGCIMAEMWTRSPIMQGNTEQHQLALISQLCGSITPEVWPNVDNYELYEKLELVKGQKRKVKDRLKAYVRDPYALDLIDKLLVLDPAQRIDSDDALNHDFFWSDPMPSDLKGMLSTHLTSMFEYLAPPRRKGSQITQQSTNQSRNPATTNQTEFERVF
Sequence (O60563 whole entry partner): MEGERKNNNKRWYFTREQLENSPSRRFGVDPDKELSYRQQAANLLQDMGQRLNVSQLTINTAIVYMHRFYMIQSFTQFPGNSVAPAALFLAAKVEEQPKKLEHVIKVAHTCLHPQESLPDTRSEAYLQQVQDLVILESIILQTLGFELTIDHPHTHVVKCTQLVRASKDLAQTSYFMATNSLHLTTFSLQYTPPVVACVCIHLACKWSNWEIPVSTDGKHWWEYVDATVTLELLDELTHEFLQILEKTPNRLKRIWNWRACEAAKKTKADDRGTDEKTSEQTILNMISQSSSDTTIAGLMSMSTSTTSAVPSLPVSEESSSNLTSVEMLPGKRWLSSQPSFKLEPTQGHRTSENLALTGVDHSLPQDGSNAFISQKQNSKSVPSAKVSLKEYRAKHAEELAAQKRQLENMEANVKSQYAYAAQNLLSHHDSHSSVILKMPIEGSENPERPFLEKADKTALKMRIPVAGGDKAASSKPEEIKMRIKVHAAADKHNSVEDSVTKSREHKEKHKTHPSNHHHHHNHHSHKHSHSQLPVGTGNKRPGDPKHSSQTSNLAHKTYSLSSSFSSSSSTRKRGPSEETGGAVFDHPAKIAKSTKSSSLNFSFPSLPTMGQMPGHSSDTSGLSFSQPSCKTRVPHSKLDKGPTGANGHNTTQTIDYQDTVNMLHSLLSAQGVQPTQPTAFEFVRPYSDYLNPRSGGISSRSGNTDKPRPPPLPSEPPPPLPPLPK
EXPERIMENT SUMMARY: CDK9/CycT1 high ATP kinase assay (TR-FRET, 2 mM ATP)
Format: biochemical
MEASUREMENT CONTEXT: 2 mM ATP (high ATP); median; read-out: CDK9/CyclinT1, 2 mM ATP (high ATP), IC50 (median)

Record excerpt, results attached:
>>> reported_measurement("Clc1cc2nc(CNc3nc(N4CCOCC4)nc4c(-c5cscn5)cnn34)[nH]c2cc1Cl")
"> 20 µM"
>>> reported_measurement("Brc1cnn2c(NCc3nc4ccccc4[nH]3)nc(NCC3CC3)nc12")
"> 20 µM"
>>> reported_measurement("CN(CC(C)(C)O)c1nc(NCc2nc3cc(C(F)(F)F)ccc3[nH]2)n2ncc(C3CC3)c2n1")
"> 20 µM"
>>> reported_measurement("Fc1ccc2[nH]c(CNc3nc(N4C[C@@H]5C[C@H]4CO5)nc4c(C5CC5)cnn34)nc2c1")
"> 20 µM"
>>> reported_measurement("Fc1c(Cl)ccc2[nH]c(CNc3nc(N4CC5CCC(C4)N5)nc4c(Br)cnn34)nc12")
"5.93 µM"

Need IC50, item `N#Cc1cccc(-c2c[nH]c(CNc3nc(N4CCOCC4)nc4c(Br)cnn34)n2)c1`
0.937 µM

Need IC50, item `NCCc1cccc2[nH]c(CNc3nc(N4CCOCC4)nc4c(Br)cnn34)nc12`
> 20 µM

====

TESTED ON: CDK12/CycK (Homo sapiens)
Sequence (Q9NYV4 with tags, fused parts or gaps): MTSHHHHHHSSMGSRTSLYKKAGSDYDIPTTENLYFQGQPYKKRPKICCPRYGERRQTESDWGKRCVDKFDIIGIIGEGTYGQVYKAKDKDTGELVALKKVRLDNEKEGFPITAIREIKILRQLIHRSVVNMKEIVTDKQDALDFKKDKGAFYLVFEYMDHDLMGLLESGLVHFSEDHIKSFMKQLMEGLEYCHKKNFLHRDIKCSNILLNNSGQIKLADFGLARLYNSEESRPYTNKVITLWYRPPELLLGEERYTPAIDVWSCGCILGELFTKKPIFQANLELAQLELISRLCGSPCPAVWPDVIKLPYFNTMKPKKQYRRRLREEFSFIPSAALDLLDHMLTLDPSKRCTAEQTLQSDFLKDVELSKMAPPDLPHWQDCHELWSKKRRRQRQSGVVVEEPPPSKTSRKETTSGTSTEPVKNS
Sequence (O75909 1-300 partner limits assumed): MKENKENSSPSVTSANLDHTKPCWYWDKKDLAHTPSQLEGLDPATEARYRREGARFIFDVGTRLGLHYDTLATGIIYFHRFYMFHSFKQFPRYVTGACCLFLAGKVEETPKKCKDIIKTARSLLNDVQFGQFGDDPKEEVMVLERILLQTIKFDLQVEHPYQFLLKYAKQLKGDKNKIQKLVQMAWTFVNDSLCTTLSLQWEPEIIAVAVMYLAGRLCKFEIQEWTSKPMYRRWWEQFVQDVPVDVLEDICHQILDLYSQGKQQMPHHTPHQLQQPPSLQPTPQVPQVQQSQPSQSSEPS
EXPERIMENT SUMMARY: CDK12/CycK high ATP kinase assay (TR-FRET, 2 mM ATP)
MEASUREMENT CONTEXT: 2 mM ATP (high ATP); median; read-out: CDK12/CyclinK, 2 mM ATP (high ATP), IC50-[mol/l] (median)
TEST READOUT: IC50 (µM)

Record excerpt, results attached:
>>> reported_measurement("Cc1ccc2[nH]c(CNc3nc(N4C[C@H]5C[C@@H]4CO5)nc4c(Br)cnn34)nc2c1")
8.5
>>> reported_measurement("Brc1cnn2c(NCc3nc4ccccc4[nH]3)nc(N3CCNCC3)nc12")
10.9
>>> reported_measurement("CCc1cnn2c(NCc3nc4ccccc4[nH]3)nc(N3CCOCC3)nc12")
2.81
>>> reported_measurement("Cc1cnn2c(NCc3nc4c(F)c(F)ccc4[nH]3)nc(N3CCOCC3)nc12")
4.37
>>> reported_measurement("O=C1CN(c2nc(NCc3nc4ccccc4[nH]3)n3ncc(Br)c3n2)CCN1")
7.12

(1) NCCc1ccc2[nH]c(CNc3nc(N4CCOCC4)nc4c(Br)cnn34)nc2c1.O=CO
(2) Cc1ccc2[nH]c(CNc3nc(N4C[C@@H]5CCCN[C@@H]5C4)nc4c(C5CC5)cnn34)nc2c1
(3) C[C@@H]1CN(c2nc(NCc3nnc(-c4ccccc4)[nH]3)n3ncc(Br)c3n2)C[C@H](C)O1
(4) c1ccc2[nH]c(CNc3nc(N4CCOCC4)nc4c(C5CC5)cnn34)nc2c1
(5) Cc1ccc(-c2nnc(CNc3nc(N4CCOCC4)nc4c(Br)cnn34)[nH]2)cc1F
Rank the items in ascending order with respect to IC50. Respond with an ordered listing of the labels, as requested.
3, 5, 1, 4, 2
(3: 0.726 µM, 5: 1.08 µM, 1: 1.71 µM, 4: 3.25 µM, 2: 8.23 µM)

(1) Fc1ccc2[nH]c(CNc3nc(N4CCOCC4)nc4c(C5CC5(F)F)cnn34)nc2c1 (racemic) [Example 286]
(2) CN1CCN(c2nc(NCc3nc4c(F)cccc4[nH]3)n3ncc(Br)c3n2)CC1
Pick the one with the larger IC50: 1 vs 2 When you have decided, please share the label of that item.
1
